Subject of test: T1, CD3 expressed on cell-surface of primary human T cells (human, UniProt P07766 23-207; P04234 22-171)
T1 construct: also called cell-surface CD3; human CD3
Assay comment: flow cytometry competition vs murine SP34-AF488 on human T cells, n = 1
As shown below, each of these binders has a reported IC50 value.
Supply the numeric figure in µg/mL, leaving out any unit text.

Recorded IC50, per entry:
huSP34.13.7 Fab-HF (Fab, V domains shown) VH: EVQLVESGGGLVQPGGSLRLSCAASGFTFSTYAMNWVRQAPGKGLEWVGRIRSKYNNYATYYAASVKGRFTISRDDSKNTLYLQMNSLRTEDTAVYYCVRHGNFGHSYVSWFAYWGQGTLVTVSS VL: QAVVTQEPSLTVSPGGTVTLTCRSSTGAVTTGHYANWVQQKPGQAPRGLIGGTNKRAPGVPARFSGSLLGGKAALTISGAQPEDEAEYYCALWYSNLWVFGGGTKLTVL : 0.43
huSP34.12.9 Fab-HF (Fab, V domains shown) VH: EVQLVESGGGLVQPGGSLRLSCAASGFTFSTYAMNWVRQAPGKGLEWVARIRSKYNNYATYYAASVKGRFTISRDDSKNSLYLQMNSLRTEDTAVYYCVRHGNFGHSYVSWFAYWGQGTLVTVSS VL: QAVVTQPPSLTVSPGGTVTLTCGSSTGAVTTGHYANWVQQKPGQAPRGLIGGTNKRAPGVPARFSGSLSGGKAALTISGAQPEDEAEYYCALWYSNLWVFGGGTKLTVL : 0.97

Consider now this further binder.
Output IC50 of huSP34.12.10 Fab-HF (Fab, V domains shown) VH: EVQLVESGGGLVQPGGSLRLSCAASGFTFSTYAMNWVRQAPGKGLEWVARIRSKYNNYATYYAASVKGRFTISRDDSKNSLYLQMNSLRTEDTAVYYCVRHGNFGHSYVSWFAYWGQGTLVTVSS VL: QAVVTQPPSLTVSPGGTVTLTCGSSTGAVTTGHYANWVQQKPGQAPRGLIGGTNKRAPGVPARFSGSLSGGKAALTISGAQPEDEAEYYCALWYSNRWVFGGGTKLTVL
0.69

Provenance of the data: patent US20230056252A1
